# Test system: Hepatocyte spheroids
# TEST_METHOD_NOTES: This assay model using primary human hepatocyte (PHH) spheroids, which are cultured in Williams E medium. After spheroid formation, cells are exposed to compounds in an FBS-free culture medium. […] Imaging is performed on an Opera Phenix High-Content Screening System, allowing quantification of proliferation as a readout for evaluating the effects of chemical probes on hepatocyte regeneration.
# Format: functional
# STATED_CONDITIONS: Concentration 10 uM, read-out: Cell Viability
For each record, write down the corresponding viability at 10 µM.

# input # value lookup — system Hepatocyte spheroids, readout viability at 10 µM, item CN([C@@H]1CCc2c(CC(=O)O)c3ccccc3n2C1)S(=O)(=O)c1ccc(F)cc1 [MK-7246]
# output 111% (non-toxic)

# input # value lookup — system Hepatocyte spheroids, readout viability at 10 µM, item CO[C@H]1CC[C@H](CNc2ccc(S(=O)(=O)NC(=O)c3ccc(N4CCN(CC5=C(c6ccc(Cl)cc6)CC(C)(C)CC5)CC4)cc3Oc3cnc4[nH]ccc4c3)cc2[N+](=O)[O-])CC1 [A-1211212]
# output 126% (non-toxic)

# input # value lookup — system Hepatocyte spheroids, readout viability at 10 µM, item CC1=CC(C)=[N+]2C1=C(CCCCc1cn(CC(=O)N3CCc4nc(NC(=O)[C@H]5CCN(C#N)C5)sc4C3)nn1)c1c(C)cc(C)n1[B-]2(F)F
# output 105% (non-toxic)

# input # value lookup — system Hepatocyte spheroids, readout viability at 10 µM, item Cc1c(N2CCCC2)nc2ccc(Br)cc2c1C(=O)NC[C@H](CCC(=O)O)c1ccccc1Cl [BAY-6672]
# output 111% (non-toxic)

###

For each record, write down the corresponding viability at 10 µM.
# System: Hepatocyte spheroids
# TEST_METHOD_NOTES: This assay model using primary human hepatocyte (PHH) spheroids, which are cultured in Williams E medium. After spheroid formation, cells are exposed to compounds in an FBS-free culture medium. […] Imaging is performed on an Opera Phenix High-Content Screening System, allowing quantification of proliferation as a readout for evaluating the effects of chemical probes on hepatocyte regeneration.
# Format: functional
# STATED_CONDITIONS: Concentration 10 uM, read-out: Cell Viability

# input Please look up its viability at 10 µM: Cn1c(C2(NC(=O)c3ccc4c(C5CCCC5)c(-c5ncc(Br)cn5)n(C)c4c3)CCC2)nc2ccc(/C=C/C(=O)O)cc21
# output 157% (non-toxic)

# input Please look up its viability at 10 µM: CC1CCN(c2ccnc(NCc3cn(C)cn3)n2)CC1
# output 133% (non-toxic)

# input Please look up its viability at 10 µM: Cc1ccc2nc(CNCCCOc3ccccc3)cc(O)c2c1
# output 147% (non-toxic)

# input Please look up its viability at 10 µM: C[C@@H](c1cccc(CN)c1)n1cc(Cl)cc(C(N)=O)c1=N
# output 111% (non-toxic)

# input Please look up its viability at 10 µM: CN1CCN(c2cnc3c(C4CCN(C(=O)c5ccc(OC(F)(F)F)cc5N)CC4)ncnc3c2)CC1
# output 98.6% (non-toxic)

# input Please look up its viability at 10 µM: CC(C)(O)[C@H](F)CN1Cc2cc(NC(=O)c3cnn4cccnc34)c(N3CCOCC3)cc2C1=O
# output 90.2% (non-toxic)

# input Please look up its viability at 10 µM: CCC(F)(F)c1cc(N2CCC(S(C)(=O)=O)CC2)nc2sc(C(N)=O)c(N)c12
# output 134% (non-toxic)

# input Please look up its viability at 10 µM: CC(=O)Nc1c(F)cc(C(=O)N[C@H]2CC[C@H](O)CC2)cc1O[C@@H](C)c1ccccc1
# output 85.2% (non-toxic)

# input Please look up its viability at 10 µM: CCC(=O)N[C@H]1CC[C@@H](C(=O)N(C)c2ccc(-c3nc4ccccc4o3)cc2)C1
# output 55.6% (toxic)

# input Please look up its viability at 10 µM: CC(=O)Nc1ncc(CN2CCC[C@H](Cc3cc(C)nc(C)c3)C2)s1
# output 142% (non-toxic)

# input Please look up its viability at 10 µM: CN(C)CC#Cc1ccc(OCCCc2sc(N3CCc4cccc(C(=O)Nc5nc6ccccc6s5)c4C3)nc2C(=O)O)c(F)c1
# output 117% (non-toxic)

# input Please look up its viability at 10 µM: C[C@H](NC(=O)c1cnc2n1[C@](C)(Cc1ccc(C#N)cc1)C(=O)N2c1cc(Cl)c(F)c(Cl)c1)C(=O)NC1(c2ccccn2)CC1
# output 121% (non-toxic)

# input Please look up its viability at 10 µM: Cc1c(NC(=O)COc2ccc(Cl)cc2C(=O)c2cc(F)cc(C(F)(F)F)c2)ccc(C(=O)O)c1F
# output 93.1% (non-toxic)

# input Please look up its viability at 10 µM: N#CC1(c2ccccn2)CCN(Cc2cc(C(=O)O)c(=O)n3ccccc23)CC1
# output 87.1% (non-toxic)

# input Please look up its viability at 10 µM: CN1CCN(C(=O)C(C)(C)c2ccc(C(=O)Nc3cn4cc(-c5ccncc5)ccc4n3)cc2)CC1
# output 1.01% (toxic)

# input Please look up its viability at 10 µM: CC[C@H](CC(=O)O)n1c(=O)c2ncccc2n(Cc2cn(C)c3cc(C)cc(C)c23)c1=O
# output 65.2% (toxic)

# input Please look up its viability at 10 µM: Cn1cncc1[C@](O)(COc1ccc(C#N)cc1-c1ccc(OC(F)(F)F)cc1)c1ccc(C#N)cc1
# output 113% (non-toxic)

###

# Tested on: Hepatocyte spheroids
# TEST_METHOD_NOTES: This assay model using primary human hepatocyte (PHH) spheroids, which are cultured in Williams E medium. After spheroid formation, cells are exposed to compounds in an FBS-free culture medium. […] Imaging is performed on an Opera Phenix High-Content Screening System, allowing quantification of proliferation as a readout for evaluating the effects of chemical probes on hepatocyte regeneration.
# Type: functional
# STATED_CONDITIONS: Concentration 10 uM, read-out: Cell Viability
OBSERVED_PROPERTY: viability at 10 µM

# input Please look up its viability at 10 µM: CC(=O)C1=C(C)N(c2cccc(C(F)(F)F)c2)C(=O)N[C@@H]1c1ccc(C#N)nc1 [BAY-678]
# output 132% (non-toxic)

# input Please look up its viability at 10 µM: C[C@H](c1ccc(F)cc1)N(Cc1cccc(C(=O)O)c1)C(=O)c1cnc2ccccc2c1 [PF-05105679]
# output 120% (non-toxic)

# input Please look up its viability at 10 µM: CC(=O)Nc1c(C(C)=O)c(=O)n(C)c2nc(-c3ccc(Cl)cc3Cl)c(-c3ccc(Cl)cc3)cc12 [NAPHTHYRIDINONE]
# output 121% (non-toxic)

# input Please look up its viability at 10 µM: O=C(NNS(=O)(=O)c1ccccc1F)c1cc(F)cc(-c2ccccn2)c1 [WM-1119]
# output 75.2% (non-toxic)

# input Please look up its viability at 10 µM: CC(C)(O)c1cncc(-c2nc3ccc(F)cc3n2C2CC2)c1 [MSD-CYP11B2]
# output 96.6% (non-toxic)

# input Please look up its viability at 10 µM: COc1nc2ccc([C@@](O)(c3ccccc3)C3CCN(C(C)=O)CC3)cc2c(Cl)c1Cc1ccc(-n2cccn2)cc1 [JNJ-54119936]
# output 114% (non-toxic)

# input Please look up its viability at 10 µM: Clc1cccc(-c2nnnn2Cc2cccnc2)c1Cl
# output 98.7% (non-toxic)

# input Please look up its viability at 10 µM: Cc1cc2c(-c3ccco3)cnc(N[C@@H]3CCN(C)C[C@H]3C(=O)NC3CCCCC3)c2[nH]c1=O [GSK789]
# output 27.6% (toxic)

# input Please look up its viability at 10 µM: CO[C@@H](C)c1c(Nc2ccc([C@H](N(C)C(=O)C3CCS(=O)(=O)CC3)C(F)(F)F)cc2)cnc2cc(Cl)nn12 [NVS-MALT1]
# output 33.9% (toxic)

# input Please look up its viability at 10 µM: CCOCCn1cc(C(=O)Nc2ccc(-n3nc(-c4cccnc4)cc3C(F)(F)F)cn2)ccc1=O [BI 1935]
# output 34.7% (toxic)

# input Please look up its viability at 10 µM: O=C1CCc2cc(Nc3cc(OC4CCOCC4)c([N+](=O)[O-])cc3Cl)ccc2N1
# output 76% (non-toxic)

# input Please look up its viability at 10 µM: CCOc1ccc(S(=O)(=O)Nc2ccc(Cl)cc2C#Cc2cnc(C(=O)O)cc2OC)c2ncccc12
# output 17.2% (toxic)

# input Please look up its viability at 10 µM: Nc1nc(NCc2ccccc2)nc(-c2ccccc2CO)n1 [Ogerin]
# output 115% (non-toxic)

# input Please look up its viability at 10 µM: CCS(=O)(=O)c1cc2cc(C[C@](O)(CC(C)(C)c3ccc(F)cc3C(N)=O)C(F)(F)F)[nH]c2cn1 [BI 653048]
# output 116% (non-toxic)

# input Please look up its viability at 10 µM: O=C(N1CCS(=O)(=O)CC1)N1C[C@H](c2ccc(OC(F)(F)F)cc2)C[C@H](c2nc(C3CC3)no2)C1 [BAY-386]
# output 111% (non-toxic)

# input Please look up its viability at 10 µM: C=CC(=O)Nc1ccc2[nH]c(=O)n(C3CCN(Cc4ccc(-c5nc6cc[nH]c(=O)c6cc5-c5ccccc5)cc4)CC3)c2c1 [Borussertib]
# output 16% (toxic)

# input Please look up its viability at 10 µM: Cn1nc(C(F)(F)F)cc1-c1cnc(N2CCc3cc(S(=O)(=O)Nc4c(F)cc(Cl)cc4F)cc(N4CCCC4=O)c32)nc1 [TP-020]
# output 120% (non-toxic)

# input Please look up its viability at 10 µM: CC(=O)N1CCC(c2ccc(C(=O)NC(=N)N)cc2C(F)(F)F)CC1 [BI 9627]
# output 106% (non-toxic)

# input Please look up its viability at 10 µM: Cc1nc(N2CC[C@H](O)C2)ncc1-c1cc(C(F)(F)F)cc2[nH]ncc12
# output 107% (non-toxic)

# input Please look up its viability at 10 µM: O=C(Nc1cnc(Oc2ccc(F)cc2)nc1)N1CCc2ncccc2[C@@H]1c1ccc(F)cc1 [BAY-899]
# output 106% (non-toxic)

# input Please look up its viability at 10 µM: O=C(NCCN1CCOCC1)c1ccc2c(c1)C(=O)c1ccc(Nc3ccc(F)c(NC(=O)c4ccccc4)c3)cc1CC2 [FS-694]
# output 84.2% (non-toxic)

# input Please look up its viability at 10 µM: CN(C)[C@@H]1CCN(c2cc(-c3ccccc3)nc3ccnn23)C1 [(R)-ZINC-3573]
# output 95.8% (non-toxic)

# input Please look up its viability at 10 µM: Cc1cnc(-c2cc(Cl)ccc2F)cc1-n1c(=O)n(CC(N)=O)c2cnccc21 [TP-008]
# output 99.1% (non-toxic)

# input Please look up its viability at 10 µM: Cc1ccccc1Oc1cc(-n2c(=O)cc(C(F)(F)F)[nH]c2=O)c2ccccc2c1Cl [BAY-069]
# output 62.5% (toxic)

# input Please look up its viability at 10 µM: c1ccc2oc(-c3csc(C4CCN(Cc5nc6ncccc6[nH]5)CC4)n3)cc2c1
# output 35.4% (toxic)

# input Please look up its viability at 10 µM: CNC(=O)c1cc(C(=O)N[C@H]2[C@@H]3COC[C@@H]32)cc2c1O[C@H](CF)[C@H]2c1ccccc1 [GSK973]
# output 88.7% (non-toxic)

# input Please look up its viability at 10 µM: COc1cc(-c2cn([C@H]3CCc4c(F)cccc4N(CC(F)(F)F)C3=O)nn2)ccc1-n1cnc(C)c1
# output 126% (non-toxic)

# input Please look up its viability at 10 µM: Cc1cc(-n2nc(Cc3cc(F)cc(C(F)(F)F)c3)nc2C)ccc1C(N)=O [TP-024]
# output 92% (non-toxic)

# input Please look up its viability at 10 µM: O=C(NC[C@@H]1[C@H]2CN(C(=O)OCc3cc(C(F)(F)F)cc(C(F)(F)F)c3)C[C@@H]12)c1ccc2[nH]nnc2c1 [BI 2545]
# output 76.5% (non-toxic)

# input Please look up its viability at 10 µM: C[C@H](c1ccnc(Nc2nc3ccc(-c4cc(N(C)C)ncn4)cc3[nH]2)c1)N1CCN(C(=O)CC(F)(F)F)CC1 [BAY-985]
# output 38.1% (toxic)

# input Please look up its viability at 10 µM: CCNC(=O)c1cc2c(N3CCOCC3C)ccnc2[nH]1 (configuration not stated)
# output 74.9% (non-toxic)

# input Please look up its viability at 10 µM: CC1=C(C#N)C(c2ccc3[nH]nc(C)c3c2)C(C#N)=C(C)N1 [BAY-474]
# output 111% (non-toxic)
